Some compounds, each annotated with its measured % inhibition at 10 μM.
Biological target: CypA (Homo sapiens, UniProt P62937)
Sequence (P62937 whole entry): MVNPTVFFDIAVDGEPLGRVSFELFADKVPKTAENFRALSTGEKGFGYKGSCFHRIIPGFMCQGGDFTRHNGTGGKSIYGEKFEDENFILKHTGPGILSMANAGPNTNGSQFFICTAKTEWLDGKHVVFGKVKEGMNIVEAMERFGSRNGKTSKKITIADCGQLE
Assay: biochemical

Before answering, review these 2 worked examples.
>>> df
                                   compound  resultvalue
0  Cc1noc(NS(=O)(=O)c2ccc(NC(=O)c3cc(-c4ccc(Br)cc4)nc4ccccc34)cc2)c1C [Compound 16c]        10.0%
1  Cc1noc(NS(=O)(=O)c2ccc(NC(=O)c3cc(-c4cccc(F)c4)nc4ccccc34)cc2)c1C [Compound 16a]        18.0%

Record request: % inhibition at 10 μM value, item Cc1noc(NS(=O)(=O)c2ccc(NC(=O)c3cc(-c4ccccc4Br)nc4ccccc34)cc2)c1C [Compound 16d]
15.0%

Item: O=C(Nc1ccc(S(=O)(=O)Nc2cnc3ccccc3n2)cc1)c1cc(-c2cccc(Br)c2)nc2ccccc12 [Compound 16j]
36.0%

Likewise for Cc1noc(NS(=O)(=O)c2ccc(NC(=O)c3cc(-c4ccncc4)nc4ccccc34)cc2)c1C [Compound 16e] ?
40.0%

Likewise for Cc1noc(NS(=O)(=O)c2ccc(NC(=O)c3cc(-c4cccc(Br)c4)nc4ccc(F)cc34)cc2)c1C [Compound 16i] ?
32.0%

And what about the compound Cc1noc(NS(=O)(=O)c2ccc(NC(=O)c3cc(-c4cccs4)nc4ccccc34)cc2)c1C [Compound 16f] ?
30.0%

And for O=C(Nc1ccc(S(=O)(=O)Nc2cnc3ccccc3n2)cc1)c1ccccc1 [Compound 17b] ?
5.6%

Moving on to Cc1noc(NS(=O)(=O)c2ccc(NC(=O)c3ccnc(-c4ccc(F)cc4)c3)cc2)c1C [Compound 16o]
26.0%
